assay: Plasma stability; assay type: in vitro ADME, cynomolgus monkey; conditions: monkey, plasma
Peptide text beside a SMILES is read from it.
quantityKind: remaining at 2 h, 2 μM

| compound | quantityKind | result |
| --- | --- | --- |
| CC(C)[C@@H](NC(=O)[C@H](N)Cc1ccc(O)cc1)C(=O)N[C@H](CC(=O)O)C(=O)N[C@H](CCCCN)C(=O)N[C@H](CCCNC(=N)N)C(=O)O [FC-12738, (D-Tyr)-(D-Val)-(D-Asp)-(D-Lys)-(D-Arg)] (HELM PEPTIDE1{[dY].[dV].[dD].[dK].[dR]}$$$$V2.0) | remaining at 2 h, 2 μM | 102% |

###

assay: Excretion study in SD rats following single subcutaneous administration; type: in vivo, SD rat; conditions: male, Sprague-Dawley, rat, feces, sc, 10 mg/kg
Peptide text beside a SMILES is read from it.

| compound | unitsText | dose excreted at 24 h |
| --- | --- | --- |
| CC(C)[C@@H](NC(=O)[C@H](N)Cc1ccc(O)cc1)C(=O)N[C@H](CC(=O)O)C(=O)N[C@H](CCCCN)C(=O)N[C@H](CCCNC(=N)N)C(=O)O [FC-12738, (D-Tyr)-(D-Val)-(D-Asp)-(D-Lys)-(D-Arg)] (HELM PEPTIDE1{[dY].[dV].[dD].[dK].[dR]}$$$$V2.0) | % | 1.74 |

###

assay: Single-dose pharmacokinetics in SD rats; format: in vivo, SD rat; conditions: male, SD, rat, plasma, iv, 2 mg/kg
Peptide text beside a SMILES is read from it.

| compound | AUC(0-inf) / ng·h/mL |
| --- | --- |
| CC(C)[C@@H](NC(=O)[C@H](N)Cc1ccc(O)cc1)C(=O)N[C@H](CC(=O)O)C(=O)N[C@H](CCCCN)C(=O)N[C@H](CCCNC(=N)N)C(=O)O [FC-12738, (D-Tyr)-(D-Val)-(D-Asp)-(D-Lys)-(D-Arg)] (HELM PEPTIDE1{[dY].[dV].[dD].[dK].[dR]}$$$$V2.0) | 2830 |

###

assay: Excretion study in SD rats following single subcutaneous administration; type: in vivo, SD rat; settings: male, Sprague-Dawley, rat, feces, sc, 10 mg/kg
Peptide text beside a SMILES is read from it.

| compound | dose excreted at 144 h [%] |
| --- | --- |
| CC(C)[C@@H](NC(=O)[C@H](N)Cc1ccc(O)cc1)C(=O)N[C@H](CC(=O)O)C(=O)N[C@H](CCCCN)C(=O)N[C@H](CCCNC(=N)N)C(=O)O [FC-12738, (D-Tyr)-(D-Val)-(D-Asp)-(D-Lys)-(D-Arg)] (HELM PEPTIDE1{[dY].[dV].[dD].[dK].[dR]}$$$$V2.0) | 2.19 |

###

test: Excretion study in SD rats following single subcutaneous administration; assay type: in vivo, SD rat; conditions: male, Sprague-Dawley, rat, urine + feces, sc, 10 mg/kg
Peptide text beside a SMILES is read from it.

| compound | dose excreted at 4 h (%) |
| --- | --- |
| CC(C)[C@@H](NC(=O)[C@H](N)Cc1ccc(O)cc1)C(=O)N[C@H](CC(=O)O)C(=O)N[C@H](CCCCN)C(=O)N[C@H](CCCNC(=N)N)C(=O)O [FC-12738, (D-Tyr)-(D-Val)-(D-Asp)-(D-Lys)-(D-Arg)] (HELM PEPTIDE1{[dY].[dV].[dD].[dK].[dR]}$$$$V2.0) | 56.2 |

###

assay: In vitro blood to plasma partitioning; type: in vitro ADME, dog; conditions: dog, whole blood
Peptide text beside a SMILES is read from it.

| compound | tissue to tissue ratio at 1 h, 2 µM |
| --- | --- |
| CC(C)[C@@H](NC(=O)[C@H](N)Cc1ccc(O)cc1)C(=O)N[C@H](CC(=O)O)C(=O)N[C@H](CCCCN)C(=O)N[C@H](CCCNC(=N)N)C(=O)O [FC-12738, (D-Tyr)-(D-Val)-(D-Asp)-(D-Lys)-(D-Arg)] (HELM PEPTIDE1{[dY].[dV].[dD].[dK].[dR]}$$$$V2.0) | 0.55 |

###

assay: In vitro protein binding, rapid equilibrium dialysis; assay type: in vitro ADME; details: human, plasma
Peptide text beside a SMILES is read from it.
quantityKind: fraction unbound at 6 h, 2 µM

| compound | quantitativeReadout |
| --- | --- |
| CC(C)[C@@H](NC(=O)[C@H](N)Cc1ccc(O)cc1)C(=O)N[C@H](CC(=O)O)C(=O)N[C@H](CCCCN)C(=O)N[C@H](CCCNC(=N)N)C(=O)O [FC-12738, (D-Tyr)-(D-Val)-(D-Asp)-(D-Lys)-(D-Arg)] (HELM PEPTIDE1{[dY].[dV].[dD].[dK].[dR]}$$$$V2.0) | 0.47 |

###

assay: Excretion study in SD rats following single subcutaneous administration; type: in vivo, SD rat; details: male, Sprague-Dawley, rat, urine, sc, 10 mg/kg
Peptide text beside a SMILES is read from it.
quantityKind: dose excreted at 24 h (%)

| compound | quantityKind | quantitativeReadout |
| --- | --- | --- |
| CC(C)[C@@H](NC(=O)[C@H](N)Cc1ccc(O)cc1)C(=O)N[C@H](CC(=O)O)C(=O)N[C@H](CCCCN)C(=O)N[C@H](CCCNC(=N)N)C(=O)O [FC-12738, (D-Tyr)-(D-Val)-(D-Asp)-(D-Lys)-(D-Arg)] (HELM PEPTIDE1{[dY].[dV].[dD].[dK].[dR]}$$$$V2.0) | dose excreted at 24 h | 84 |

These measurements were taken from paper doi:10.1101/2023.04.18.537371v1.
